QPCTL (Homo sapiens (Human)) IC50 data

These solved cases illustrate the format of a correct answer.
Cc1cc(-n2cnc(C(F)(F)F)c2)ncc1[C@H]1[C@@H](C2CC2)C(=O)N1c1ccc2[nH]cnc2c1 (single isomer, unassigned) [Compound 73B]; < 2 nM
O=C1[C@H](C2CC2)[C@H](c2ccc(-c3cnn(C(F)(F)F)c3)cc2C(F)(F)F)N1c1ccc2[nH]cnc2c1 (single isomer, unassigned) [Compound 76B]; > 1000 nM
Cc1noc(C)c1-c1cc(F)c([C@H]2[C@@H](C3CC3)C(=O)N2c2ccc3[nH]cnc3c2)c(F)c1 (single isomer, unassigned) [Compound 64B]; 2 to 25 nM

Could you tell me which IC50 is on file for O=C1[C@H](C2CC2)[C@H](c2ccc(OCCC(F)F)nc2)N1c1ccc2[nH]cnc2c1 (single isomer, unassigned) [Compound 45B] ? < 2 nM

Now the same for O=C1[C@@H](C2CC2)[C@@H](c2c(F)cc(-c3cn(C(F)(F)F)nn3)cc2F)N1c1ccc2[nH]cnc2c1 (single isomer, unassigned) [Compound 50A] 25 to 1000 nM

Moving on to O=C1[C@H](C2CC2)[C@H](c2ccc(-c3cnn(C(F)(F)F)c3)cn2)N1c1ccc2[nH]cnc2c1 (single isomer, unassigned) [Compound 46B] < 2 nM

----------
In this section we review reported IC50 values for a set of molecules.
TARGET: QPCTL (Homo sapiens (Human), UniProt Q9NXS2)
Sequence (Q9NXS2 whole entry, species assumed): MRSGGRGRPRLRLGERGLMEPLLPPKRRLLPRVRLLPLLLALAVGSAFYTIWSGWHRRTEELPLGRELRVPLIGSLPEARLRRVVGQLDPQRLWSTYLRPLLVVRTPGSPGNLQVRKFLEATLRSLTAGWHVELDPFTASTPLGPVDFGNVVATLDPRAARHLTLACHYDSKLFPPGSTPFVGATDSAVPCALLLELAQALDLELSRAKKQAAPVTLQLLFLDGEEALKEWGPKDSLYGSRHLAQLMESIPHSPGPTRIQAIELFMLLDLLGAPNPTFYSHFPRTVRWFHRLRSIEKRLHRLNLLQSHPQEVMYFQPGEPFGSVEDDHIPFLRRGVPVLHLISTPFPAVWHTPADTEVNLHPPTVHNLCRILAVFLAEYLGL

C[C@@H]1C(=O)N(c2ccc3[nH]cnc3c2)[C@H]1c1c(F)cc(OCCC(F)F)cc1F (single isomer, unassigned); 25 to 1000 nM
Cc1nc(-c2cc(F)c([C@H]3[C@@H](C)C(=O)N3c3ccc4[nH]cnc4c3)c(F)c2)cs1 (racemic) [Compound 10CR]; 2 to 25 nM
O=C1[C@@H](C2CC2)[C@@H](c2ccc(-c3cnn(C(F)(F)F)c3)cn2)N1c1ccc2[nH]cnc2c1 (single isomer, unassigned) [Compound 46A]; 25 to 1000 nM

Endpoint output: IC50 of Cc1cc([C@H]2[C@@H](C3CC3)C(=O)N2c2ccc3[nH]cnc3c2)ccc1-c1cnn(C(F)(F)F)c1 (single isomer, unassigned) [Compound 57B] . Value? < 2 nM

Also check O=C1[C@H](C2COC2)[C@H](c2c(F)cc(OCCC(F)F)cc2F)N1c1ccc2[nH]cnc2c1 (single isomer, unassigned) [Compound 44B] < 2 nM

Now the same for Cc1cc(-c2ccc(C(F)(F)F)nn2)ccc1[C@H]1[C@@H](C2CC2)C(=O)N1c1ccc2[nH]cnc2c1 (single isomer, unassigned) [Compound 67B] < 2 nM

----------
TARGET: QPCTL (Homo sapiens (Human), UniProt Q9NXS2)
ASSAY_OVERVIEW: QPCTL inhibition, SensoLyte Green Glutaminyl Cyclase Activity Assay
Type: biochemical
PROTOCOL_CONDITIONS: 0.8 nM 2x enzyme solution, 45 min at 37° C., 50 mM Tris pH 8.0, 1% DMSO
RECORDED_METRIC: IC50

Would you mind telling me what IC50 value was observed for Cc1nc(-c2cnn(C(F)(F)F)c2)ccc1[C@H]1[C@@H](C2CC2)C(=O)N1c1ccc2[nH]cnc2c1 (single isomer, unassigned) [Compound 68B] ? < 2 nM

----------
Hi! I'm sharing some IC50 results obtained with QPCTL (Homo sapiens (Human)).

Known IC50 results, listed for orientation:
Cc1cc(-c2ccc(C(F)(F)F)nn2)ccc1[C@@H]1[C@H](C2CC2)C(=O)N1c1ccc2[nH]cnc2c1 (single isomer, unassigned) [Compound 67A]; 25 to 1000 nM
Cc1nc(-c2ccc(C(F)(F)F)nn2)ccc1[C@@H]1[C@H](C2CC2)C(=O)N1c1ccc2[nH]cnc2c1 (single isomer, unassigned) [Compound 70A]; 25 to 1000 nM
O=C1[C@H](C2CC2)[C@H](c2c(F)cc(-n3cc(C(F)(F)F)nn3)cc2F)N1c1ccc2[nH]cnc2c1 (single isomer, unassigned) [Compound 59B]; < 2 nM
O=C1[C@@H](C2CC2)[C@@H](c2ccc(-c3cnn(C(F)(F)F)c3)nc2)N1c1ccc2[nH]cnc2c1 (single isomer, unassigned) [Compound 43A]; 25 to 1000 nM
C[C@@H]1C(=O)N(c2ccc3[nH]cnc3c2)[C@@H]1c1c(F)cc(-c2cnn(C(F)(F)F)c2)cc1F (single isomer, unassigned) [Compound 14A]; 25 to 1000 nM
Cc1nc(-c2ccc(C(F)(F)F)nn2)ccc1[C@H]1[C@@H](C2CC2)C(=O)N1c1ccc2[nH]cnc2c1 (single isomer, unassigned) [Compound 70B]; < 2 nM
CN1CCN(c2cc(F)c(C3CC(=O)N3c3ccc4[nH]cnc4c3)c(F)c2)CC1 (racemic); 2 to 25 nM
C[C@@H]1C(=O)N(c2ccc3[nH]cnc3c2)[C@H]1c1c(F)cc(OCCC2CC2)cc1F (racemic) [Compound 34TR]; 25 to 1000 nM
C[C@H]1C(=O)N(c2ccc3[nH]cnc3c2)[C@H]1c1ccc(OCCC(F)F)nc1 (racemic) [Compound 23CR]; 2 to 25 nM
O=C1[C@@H](C2COC2)[C@@H](c2c(F)cc(-c3cnn(C(F)(F)F)c3)cc2F)N1c1ccc2[nH]cnc2c1 (single isomer, unassigned) [Compound 42A]; 25 to 1000 nM

Enter reported IC50 observed with QPCTL (Homo sapiens (Human)) for CC[C@H]1C(=O)N(c2ccc3[nH]cnc3c2)[C@H]1c1c(F)cc(-c2cnn(C(F)(F)F)c2)cc1F (single isomer, unassigned) [Compound 51B] < 2 nM

Please answer likewise for CC1C(=O)N(c2ccc3[nH]cnc3c2)C1c1c(F)cc(OCCC(F)F)cc1F (racemic) 2 to 25 nM

And for Cc1nc(-n2cnc(C(F)(F)F)c2)ccc1[C@H]1[C@@H](C2CC2)C(=O)N1c1ccc2[nH]cnc2c1 (single isomer, unassigned) [Compound 72B] ? < 2 nM

Next up: O=C1[C@H](C2CC2)[C@H](c2c(F)cc(-n3ccc(C(F)(F)F)n3)cc2F)N1c1ccc2[nH]cnc2c1 (single isomer, unassigned) [Compound 48B] < 2 nM

Ok, now O=C1[C@H](C2CC2)[C@H](c2c(F)cc(-n3ncc(C(F)(F)F)n3)cc2F)N1c1ccc2[nH]cnc2c1 (single isomer, unassigned) [Compound 60B] < 2 nM

Subsequent entry: O=C1[C@@H](C2CC2)[C@@H](c2ccc(-c3cnn(C(F)(F)F)c3)cc2)N1c1ccc2[nH]cnc2c1 (single isomer, unassigned) [Compound 55A] 25 to 1000 nM

Then this molecule: O=C1[C@@H](C2CC2)[C@@H](c2c(F)cc(-n3ccc(C(F)(F)F)n3)cc2F)N1c1ccc2[nH]cnc2c1 (single isomer, unassigned) [Compound 48A] 2 to 25 nM
